FYI, the data here is from ChEMBL document CHEMBL5321255.

A collection of molecules and their measured selectivity ratio
# experiment_notes: Selectivity index, ratio of CC50 for cytotoxicity against BALB/c mouse splenocyte to IC50 for immunosuppressive activity in BALB/c mouse splenocytes assessed as inhibition of ConA-induced T cell proliferation
# Type: cell-based
# measurement_parameters: read-out: Ratio CC50/IC50
The answer should be a number; do not append a unit.

Would you kindly share the measured selectivity ratio for Oc1cc2c(cc1C[C@H]1CO[C@@H]3Oc4cc5c(cc4C[C@H]13)OCO5)OCO2 ? 1.7

What selectivity ratio value was documented for this molecule, COc1cc2c(cc1O)O[C@H]1OC[C@H](Cc3cc4c(cc3O)OCO4)[C@H]1C2 ? 5.6

What selectivity ratio value was documented for this molecule, COc1cc(C[C@H]2CO[C@@H]3Oc4cc5c(cc4C[C@H]23)OCO5)ccc1O ? 4

---
Could you tell me which selectivity ratio is on file for OC[C@H](Cc1cc2c(cc1O)OCO2)[C@](O)(CO)Cc1cc2c(cc1O)OCO2 ? 1.9

Entry OC[C@H](Cc1ccc2c(c1)OCO2)[C@](O)(CO)Cc1cc2c(cc1O)OCO2 has what selectivity ratio? 3.6

What value of selectivity ratio has been reported for the following molecule? O=C(Cc1ccc2c(c1)OCO2)[C@H](CO)Cc1ccc2c(c1)OCO2 3.8

====

# experiment_notes: Cytotoxicity against BALB/c mouse splenocytes incubated for 48 hrs by MTT assay
# Assay type: toxicity, cell-based, Splenocyte
Please note: CC50 at 48 h exactly at 90 µM is No. Only values below 90 µM get Yes.

Previously resolved entries follow.
Dear reviewer, please state whether COc1cc2c(cc1O)O[C@H]1OC[C@H](Cc3cc4c(cc3O)OCO4)[C@H]1C2 has CC50 at 48 h strictly beneath 90 µM. Yes

Lab note: confirm whether the reported CC50 at 48 h for this molecule is below 90 µM, equality not counting. molecule: O=C(Cc1ccc2c(c1)OCO2)[C@H](CO)Cc1ccc2c(c1)OCO2 Yes

Dear reviewer, please state whether COc1cc(C[C@H]2CO[C@@H]3Oc4cc5c(cc4C[C@H]23)OCO5)ccc1O has CC50 at 48 h strictly beneath 90 µM. Yes

# check: CC50 at 48 h < 90 µM for OC[C@H](Cc1ccc2c(c1)OCO2)[C@](O)(CO)Cc1cc2c(cc1O)OCO2 No

In the following, a different molecule is considered.
Hello, I'm reviewing records and need to know if CC50 at 48 h of OC[C@H](Cc1cc2c(cc1O)OCO2)[C@](O)(CO)Cc1cc2c(cc1O)OCO2 is below 90 µM. Could you check? No
